Assay: binders of r(CAG) RNA repeats, primary screen, biochemical, fluorescence (AID 651821);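 also: 0% = DMSO alone and 100% = 100 µM mitoxantrone as full dye displacement; higher means more dye released from RNA so lower well fluorescence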
Conditions: r(CAG) RNA repeat, TO-PRO-1 dye displacement fluorescence; at 3 µM; active compounds read high
About 4,700 (1.3%) of roughly 370,000 compounds were called active. The entries come from a sample that favours actives as a whole.
measure name: inhibition (%)
State the answer as a number, implicitly in %.

Field: example entries. Status: answers known.
Challenge: Which inhibition is reported for this molecule? CC(Oc1cccc(Cl)c1)C(=O)Nc1ccc(S(=O)(=O)Nc2ncccn2)cc1 (stereo not given)
Response given: 8.9

Challenge: Look at this molecule and give its reported inhibition. CCCNC(=O)C1CC(=O)N(c2ccc(OCc3ccccc3)cc2)C1 (stereo not given)
Response given: 1.21

Challenge: Recorded inhibition of C=CCc1ccc(OCC(O)CN2CCN(Cc3ccccc3)CC2)c(OC)c1 (stereo not given) , please.
Response given: -8.04

Continuing:
Challenge: Quick one: inhibition for Cc1cc(C)nc(NS(=O)(=O)c2ccc(N/C=C\C(=O)c3cccs3)cc2)n1 ?
Response given: 10.2

Challenge: Param item = Cc1cc(OC(C)C(=O)Nc2ccc(S(=O)(=O)Nc3onc(C)c3C)cc2)cc(C)c1Cl (stereo not given) ; retrieve measured inhibition.
Response given: 75.6
